- TARGET: fusion protein PRF
- Sequence (chain, as listed by the source): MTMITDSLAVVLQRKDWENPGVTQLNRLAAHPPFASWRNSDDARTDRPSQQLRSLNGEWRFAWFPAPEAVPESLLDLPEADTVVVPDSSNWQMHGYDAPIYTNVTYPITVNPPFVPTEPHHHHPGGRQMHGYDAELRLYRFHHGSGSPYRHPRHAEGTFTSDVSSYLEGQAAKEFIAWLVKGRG
VALUE TYPE: relative cleavage efficiency

Look over these answered cases.
PROTEIN: OmpT protease variant OmpT D97N (protein) STETLSFTPDNINADISLGTLSGKTKERVYLAEEGGRKVSQLDWKFNNAAIIKGAINWDLMPQISIGAAGWTTLGSRGGNMVDQDWMDSSNPGTWTNESRHPDTQLNYANEFDLNIKGWLLNEPNYRLGLMAGYQESRYSFTARGGSYIYSSEEGFRDDIGSFPNGERAIGYKQRFKMPYIGLTGSYRYEDFELGGTFKYSGWVESSDNDEHYDPGKRITYRSKVKDQNYYSVAVNAGYYVTPNAKVYVEGAWNRVTNKKGNTSLYDHNNNTSDYSKNGAGIENYNFITTAGLKYTF
relative cleavage efficiency: < 3%

PROTEIN: OmpT protease variant OmpT D97T (protein) STETLSFTPDNINADISLGTLSGKTKERVYLAEEGGRKVSQLDWKFNNAAIIKGAINWDLMPQISIGAAGWTTLGSRGGNMVDQDWMDSSNPGTWTTESRHPDTQLNYANEFDLNIKGWLLNEPNYRLGLMAGYQESRYSFTARGGSYIYSSEEGFRDDIGSFPNGERAIGYKQRFKMPYIGLTGSYRYEDFELGGTFKYSGWVESSDNDEHYDPGKRITYRSKVKDQNYYSVAVNAGYYVTPNAKVYVEGAWNRVTNKKGNTSLYDHNNNTSDYSKNGAGIENYNFITTAGLKYTF
relative cleavage efficiency: 3.7%

PROTEIN: OmpT protease variant OmpT D97R (protein) STETLSFTPDNINADISLGTLSGKTKERVYLAEEGGRKVSQLDWKFNNAAIIKGAINWDLMPQISIGAAGWTTLGSRGGNMVDQDWMDSSNPGTWTRESRHPDTQLNYANEFDLNIKGWLLNEPNYRLGLMAGYQESRYSFTARGGSYIYSSEEGFRDDIGSFPNGERAIGYKQRFKMPYIGLTGSYRYEDFELGGTFKYSGWVESSDNDEHYDPGKRITYRSKVKDQNYYSVAVNAGYYVTPNAKVYVEGAWNRVTNKKGNTSLYDHNNNTSDYSKNGAGIENYNFITTAGLKYTF
relative cleavage efficiency: less than 3.0%

PROTEIN: OmpT protease variant OmpT D97A (protein) STETLSFTPDNINADISLGTLSGKTKERVYLAEEGGRKVSQLDWKFNNAAIIKGAINWDLMPQISIGAAGWTTLGSRGGNMVDQDWMDSSNPGTWTAESRHPDTQLNYANEFDLNIKGWLLNEPNYRLGLMAGYQESRYSFTARGGSYIYSSEEGFRDDIGSFPNGERAIGYKQRFKMPYIGLTGSYRYEDFELGGTFKYSGWVESSDNDEHYDPGKRITYRSKVKDQNYYSVAVNAGYYVTPNAKVYVEGAWNRVTNKKGNTSLYDHNNNTSDYSKNGAGIENYNFITTAGLKYTF
relative cleavage efficiency: < 3%

PROTEIN: OmpT protease variant OmpT D97G (protein) STETLSFTPDNINADISLGTLSGKTKERVYLAEEGGRKVSQLDWKFNNAAIIKGAINWDLMPQISIGAAGWTTLGSRGGNMVDQDWMDSSNPGTWTGESRHPDTQLNYANEFDLNIKGWLLNEPNYRLGLMAGYQESRYSFTARGGSYIYSSEEGFRDDIGSFPNGERAIGYKQRFKMPYIGLTGSYRYEDFELGGTFKYSGWVESSDNDEHYDPGKRITYRSKVKDQNYYSVAVNAGYYVTPNAKVYVEGAWNRVTNKKGNTSLYDHNNNTSDYSKNGAGIENYNFITTAGLKYTF
relative cleavage efficiency: less than 3.0%

What the record says about OmpT protease variant OmpT D97C (protein) STETLSFTPDNINADISLGTLSGKTKERVYLAEEGGRKVSQLDWKFNNAAIIKGAINWDLMPQISIGAAGWTTLGSRGGNMVDQDWMDSSNPGTWTCESRHPDTQLNYANEFDLNIKGWLLNEPNYRLGLMAGYQESRYSFTARGGSYIYSSEEGFRDDIGSFPNGERAIGYKQRFKMPYIGLTGSYRYEDFELGGTFKYSGWVESSDNDEHYDPGKRITYRSKVKDQNYYSVAVNAGYYVTPNAKVYVEGAWNRVTNKKGNTSLYDHNNNTSDYSKNGAGIENYNFITTAGLKYTF : relative cleavage efficiency is 4.6%

What the record says about OmpT protease variant OmpT D97L (protein) STETLSFTPDNINADISLGTLSGKTKERVYLAEEGGRKVSQLDWKFNNAAIIKGAINWDLMPQISIGAAGWTTLGSRGGNMVDQDWMDSSNPGTWTLESRHPDTQLNYANEFDLNIKGWLLNEPNYRLGLMAGYQESRYSFTARGGSYIYSSEEGFRDDIGSFPNGERAIGYKQRFKMPYIGLTGSYRYEDFELGGTFKYSGWVESSDNDEHYDPGKRITYRSKVKDQNYYSVAVNAGYYVTPNAKVYVEGAWNRVTNKKGNTSLYDHNNNTSDYSKNGAGIENYNFITTAGLKYTF : relative cleavage efficiency is 4.7%

What the record says about OmpT protease variant OmpT D97I (protein) STETLSFTPDNINADISLGTLSGKTKERVYLAEEGGRKVSQLDWKFNNAAIIKGAINWDLMPQISIGAAGWTTLGSRGGNMVDQDWMDSSNPGTWTIESRHPDTQLNYANEFDLNIKGWLLNEPNYRLGLMAGYQESRYSFTARGGSYIYSSEEGFRDDIGSFPNGERAIGYKQRFKMPYIGLTGSYRYEDFELGGTFKYSGWVESSDNDEHYDPGKRITYRSKVKDQNYYSVAVNAGYYVTPNAKVYVEGAWNRVTNKKGNTSLYDHNNNTSDYSKNGAGIENYNFITTAGLKYTF : relative cleavage efficiency is less than 3.0%

Data provenance is patent US20070077617.
